experimental_protocol: physchem
condition_set: pH 7.4, aqueous buffer, kinetic from dmso stock
measurement_type: solubility at 4 h (µg/mL)
Provide the reading as a plain figure in µg/mL.

CN(Cc1cn(-c2ccc(F)cc2)nn1)c1nc(=O)c2cc(C(F)(F)F)cc([N+](=O)[O-])c2s1	0.12
CN(Cc1coc(-c2ccccc2)n1)c1nc(=O)c2cc(C(F)(F)F)cc([N+](=O)[O-])c2s1	0.11

Item: CN(Cc1cn(-c2ccccc2)nn1)c1nc(=O)c2cc(C(F)(F)F)cc([N+](=O)[O-])c2s1 | solubility at 4 h: 0.13

CN(Cc1nnc(-c2ccccc2)o1)c1nc(=O)c2cc(C(F)(F)F)cc([N+](=O)[O-])c2s1 has a reported solubility at 4 h of 0.15

---

experimental_protocol: in vitro
condition_set: human, microsomes, pH 7.4
Entries annotated with measured half-life at 1 μM
Expressed in h, but write only the number.

CN(Cc1cn(-c2ccccc2)nn1)c1nc(=O)c2cc(C(F)(F)F)cc([N+](=O)[O-])c2s1 yielded half-life at 1 μM of 1.67

The recorded half-life at 1 μM for CN(Cc1nnc(-c2ccccc2)o1)c1nc(=O)c2cc(C(F)(F)F)cc([N+](=O)[O-])c2s1 is 1.14

Per the records, this compound ( CN(Cc1cn(-c2ccc(F)cc2)nn1)c1nc(=O)c2cc(S(C)(=O)=O)cc([N+](=O)[O-])c2s1 [Control 3] ) has half-life at 1 μM equal to 0.46

---

experimental_protocol: in vitro
condition_set: human, microsomes, pH 7.4
measurement_type: half-life at 1 μM (min)
Quick note: give the figure in min, leave out the unit.

CN(Cc1coc(-c2ccccc2)n1)c1nc(=O)c2cc(S(C)(=O)=O)cc([N+](=O)[O-])c2s1 [Control 5]	21
CN(Cc1cn(-c2ccccc2)nn1)c1nc(=O)c2cc(S(C)(=O)=O)cc([N+](=O)[O-])c2s1 [Control 2]	53.7
CN(Cc1nnc(-c2ccccc2)o1)c1nc(=O)c2cc(S(C)(=O)=O)cc([N+](=O)[O-])c2s1 [Control 1]	45.9

// moving on: another record for half-life at 1 μM
Sure, the documented half-life at 1 μM for CN(Cc1cn(-c2ccc(F)cc2)nn1)c1nc(=O)c2cc(C(F)(F)F)cc([N+](=O)[O-])c2s1 is 116

---

experimental_protocol: in vitro
condition_set: human, microsomes, pH 7.4
Below, each entry is listed alongside its reported half-life at 1 μM.
State just the number; it will be interpreted in min.

In the examples that follow, each entry is paired with its recorded half-life at 1 μM.
CN(Cc1nnc(-c2ccc(F)cc2)s1)c1nc(=O)c2cc(C(F)(F)F)cc([N+](=O)[O-])c2s1 [Example 4]	34.3
O=c1nc(N2CCN(CC3CCCCC3)CC2)sc2c([N+](=O)[O-])cc(C(F)(F)F)cc12 [PBTZ169]	38
CN(Cc1coc(-c2ccccc2)n1)c1nc(=O)c2cc(C(F)(F)F)cc([N+](=O)[O-])c2s1 [Example 5]	33.6

// next entry
The compound listed as CN(Cc1nnc(-c2ccc(F)cc2)s1)c1nc(=O)c2cc(S(C)(=O)=O)cc([N+](=O)[O-])c2s1 [Control 4] shows half-life at 1 μM equal to 13.2
